# Tested on: Enterococcus
# experiment.notes: Antibacterial activity against Enterococcus 60 assessed as bacterial growth inhibition in presence of 50 ug/ml calcium ions by CLSI protocol based broth microdilution method
# Assay type: functional
Quick reference for MIC among some compounds

CCCCCCCCCC(=O)N[C@@H](Cc1ccncc1)C(=O)N[C@@H](CC(N)=O)C(=O)N[C@@H](CC(=O)O)C(=O)N[C@@H]1C(=O)NCC(=O)N[C@@H](CCCN)C(=O)N[C@@H](CC(=O)O)C(=O)N[C@H](C)C(=O)N[C@@H](CC(=O)O)C(=O)NCC(=O)N[C@H](CO)C(=O)N[C@@H]([C@@H](C)CC(=O)O)C(=O)N[C@@H](CC(=O)c2ccccc2N)C(=O)O[C@@H]1C	≥ 32 µg/mL
CCCCCCCCCC(=O)N[C@@H](Cc1c[nH]c2ccccc12)C(=O)N[C@@H](CC(N)=O)C(=O)N[C@@H](CC(=O)O)C(=O)N[C@@H]1C(=O)NCC(=O)N[C@@H](CCCN)C(=O)N[C@@H](CC(=O)O)C(=O)N[C@H](C)C(=O)N[C@H](CC(=O)O)C(=O)NCC(=O)N[C@H](CO)C(=O)N[C@@H]([C@@H](C)CC(=O)O)C(=O)N[C@@H](CC(=O)c2ccccc2N)C(=O)O[C@@H]1C	≥ 32 µg/mL
CCCCCCCCCC(=O)N[C@@H](Cc1c[nH]c2ccccc12)C(=O)N[C@@H](CC(N)=O)C(=O)N[C@@H](CC(=O)O)C(=O)N[C@@H]1C(=O)NCC(=O)N[C@@H](CCCNC(=N)N)C(=O)N[C@@H](CC(=O)O)C(=O)N[C@H](C)C(=O)N[C@@H](CC(=O)O)C(=O)NCC(=O)N[C@H](CO)C(=O)N[C@@H]([C@@H](C)CC(=O)O)C(=O)N[C@@H](CC(=O)c2ccccc2N)C(=O)O[C@@H]1C	16 µg/mL
CCCCCCCCCC(=O)N[C@@H](Cc1c[nH]c2ccccc12)C(=O)N[C@@H](CC(N)=O)C(=O)N[C@@H](CC(=O)O)C(=O)N[C@@H]1C(=O)NCC(=O)N[C@@H](CCCN)C(=O)N[C@@H](C)C(=O)N[C@H](C)C(=O)N[C@@H](CC(=O)O)C(=O)NCC(=O)N[C@H](CO)C(=O)N[C@@H]([C@@H](C)CC(=O)O)C(=O)N[C@@H](CC(=O)c2ccccc2N)C(=O)O[C@@H]1C	≥ 64 µg/mL
CCCCCCCCCC(=O)N[C@@H](Cc1c[nH]c2ccccc12)C(=O)N[C@@H](CC(N)=O)C(=O)N[C@@H](CC(=O)O)C(=O)N[C@@H]1C(=O)NCC(=O)N[C@@H](CCCN)C(=O)N[C@@H](CC(=O)O)C(=O)N[C@H](C)C(=O)N[C@@H](CCC(=O)O)C(=O)NCC(=O)N[C@H](CO)C(=O)N[C@@H]([C@@H](C)CC(=O)O)C(=O)N[C@@H](CC(=O)c2ccccc2N)C(=O)O[C@@H]1C	≥ 32 µg/mL
CCCCCCCCCC(=O)N[C@@H](Cc1c[nH]c2ccccc12)C(=O)N[C@@H](CC(N)=O)C(=O)N[C@@H](CC(=O)O)C(=O)N[C@@H]1C(=O)NCC(=O)N[C@@H](CC(N)=O)C(=O)N[C@@H](CC(=O)O)C(=O)N[C@H](C)C(=O)N[C@@H](CC(=O)O)C(=O)NCC(=O)N[C@H](CO)C(=O)N[C@@H]([C@@H](C)CC(=O)O)C(=O)N[C@@H](CC(=O)c2ccccc2N)C(=O)O[C@@H]1C	≥ 32 µg/mL
CCCCCCCCCC(=O)N[C@@H](Cc1c[nH]c2ccccc12)C(=O)N[C@@H](CC(N)=O)C(=O)N[C@@H](CC(=O)O)C(=O)N[C@@H]1C(=O)NCC(=O)N[C@@H]([C@@H](C)CC)C(=O)N[C@@H](CC(=O)O)C(=O)N[C@H](C)C(=O)N[C@@H](CC(=O)O)C(=O)NCC(=O)N[C@H](CO)C(=O)N[C@@H]([C@@H](C)CC(=O)O)C(=O)N[C@@H](CC(=O)c2ccccc2N)C(=O)O[C@@H]1C	32 µg/mL
CCCCCCCCCC(=O)N[C@@H](Cc1cccc2ccccc12)C(=O)N[C@@H](CC(N)=O)C(=O)N[C@@H](CC(=O)O)C(=O)N[C@@H]1C(=O)NCC(=O)N[C@@H](CCCN)C(=O)N[C@@H](CC(=O)O)C(=O)N[C@H](C)C(=O)N[C@@H](CC(=O)O)C(=O)NCC(=O)N[C@H](CO)C(=O)N[C@@H]([C@@H](C)CC(=O)O)C(=O)N[C@@H](CC(=O)c2ccccc2N)C(=O)O[C@@H]1C	2 µg/mL

**Query** Please state recorded MIC (tested on Enterococcus) of `CCCCCCCCCC(=O)N[C@@H](Cc1c[nH]c2ccccc12)C(=O)N[C@@H](CC(N)=O)C(=O)N[C@@H](CC(=O)O)C(=O)N[C@@H]1C(=O)NCC(=O)N[C@@H](Cc2c[nH]cn2)C(=O)N[C@@H](CC(=O)O)C(=O)N[C@H](C)C(=O)N[C@@H](CC(=O)O)C(=O)NCC(=O)N[C@H](CO)C(=O)N[C@@H]([C@@H](C)CC(=O)O)C(=O)N[C@@H](CC(=O)c2ccccc2N)C(=O)O[C@@H]1C`
**Result** ≥ 32 µg/mL

**Query** Thanks! And `CCCCCCCCCC(=O)N[C@@H](Cc1c[nH]c2ccccc12)C(=O)N[C@@H](CC(N)=O)C(=O)N[C@@H](CC(=O)O)C(=O)N[C@@H]1C(=O)NCC(=O)N[C@@H](CCCN)C(=O)N[C@@H](CC(=O)O)C(=O)N[C@@H](C)C(=O)N[C@@H](CC(=O)O)C(=O)NCC(=O)N[C@H](CO)C(=O)N[C@@H]([C@@H](C)CC(=O)O)C(=O)N[C@@H](CC(=O)c2ccccc2N)C(=O)O[C@@H]1C` ?
**Result** ≥ 64 µg/mL

**Query** Entry `CCCCCCCCCC(=O)N[C@@H](Cc1c[nH]c2ccccc12)C(=O)N[C@@H](CC(N)=O)C(=O)N[C@@H](CC(=O)O)C(=O)N[C@@H]1C(=O)NCC(=O)N[C@@H](CC(C)C)C(=O)N[C@@H](CC(=O)O)C(=O)N[C@H](C)C(=O)N[C@@H](CC(=O)O)C(=O)NCC(=O)N[C@H](CO)C(=O)N[C@@H]([C@@H](C)CC(=O)O)C(=O)N[C@@H](CC(=O)c2ccccc2N)C(=O)O[C@@H]1C` please
**Result** 16 µg/mL
